TEST: non-specific cell cytotoxicity, dose response, cytotoxicity control for PAX8 inhibitor project, plate reader, dry powder samples (AID 743021)
EXPERIMENTAL PARAMETERS: cell line, non-specific cytotoxicity counter-screen; series mostly up to 35 µM
Measured potencies and affinities stand elsewhere. Records with an inconclusive call do not appear. Active and inactive are the calls of the source. The rule behind the calls is not given here.
VALUE TYPE: activity change, negative = cytotoxicity

C[C@@H]1CN([C@@H](C)CO)C(=O)Cc2cc(NC(=O)Nc3ccc(C(F)(F)F)cc3)ccc2O[C@H]1CN(C)S(=O)(=O)c1ccc(F)cc1    inactive
C[C@@H]1CN([C@@H](C)CO)C(=O)c2cc(NC(=O)c3ccccc3)ccc2O[C@@H](C)CCCCO[C@H]1CN(C)Cc1ccc(C(F)(F)F)cc1    inactive
C[C@@H]1CN([C@H](C)CO)C(=O)c2cc(NC(=O)c3ccccc3)ccc2O[C@@H](C)CCCCO[C@H]1CN(C)Cc1ccc(C(F)(F)F)cc1    inactive
CC(C)CC#Cc1ccc([C@@H]2[C@@H](CO)N3CCCCN(S(=O)(=O)c4ccc(F)cc4)C[C@H]23)cc1    inactive
Cc1ccc(S(=O)(=O)Nc2ccc3c(c2)C(=O)N([C@H](C)CO)C[C@@H](C)[C@@H](CN(C)Cc2ccc4c(c2)OCO4)OCCCC[C@@H](C)O3)cc1    inactive

Hi! Can you tell me activity change, negative = cytotoxicity for each of these compounds?
1. COc1cc(-c2c(-c3cc(OC)c(OC)c(OC)c3)noc2C)ccc1F
2. CCc1ccc(CNC(=O)C2CCCN(c3nnc(C)c4c(C)n(-c5ccccc5)nc34)C2)cc1 (stereo not given)
3. Cc1ccc(S(=O)(=O)N(C)C[C@@H]2Oc3c(NC(=O)c4ccc(-c5nccs5)cc4)cccc3C(=O)N([C@@H](C)CO)C[C@@H]2C)cc1
4. Cc1cccc2sc(N(CCCN(C)C)C(=O)CCS(=O)(=O)c3ccccc3)nc12
5. Cc1ccc(S(=O)(=O)N(C)C[C@@H]2Oc3cc(C#Cc4ccncc4)ccc3S(=O)(=O)N([C@@H](C)CO)C[C@H]2C)cc1

a:
1: inactive; 2: inactive; 3: inactive; 4: inactive; 5: inactive

Respectfully, I request activity change, negative = cytotoxicity for each entry included below.
1. C[C@@H]1CN([C@H](C)CO)S(=O)(=O)c2ccc(C#Cc3ccncc3)cc2O[C@H]1CN(C)C(=O)C1CCCCC1
2. O=C(CCc1ccc(S(=O)(=O)NCc2ccccc2)cc1)NCc1ccco1
3. Cn1c(=O)c([N+](=O)[O-])c(Cl)c2ccccc21
4. CN(C)N=Nc1nc[nH]c1C(N)=O

a:
["inactive", "inactive", "inactive", "inactive"]

Fill in activity change, negative = cytotoxicity for each of the 8 compounds listed.
1. Cc1ccc(S(=O)(=O)Nc2ccc3c(c2)C(=O)N([C@H](C)CO)C[C@H](C)[C@@H](CN(C)S(=O)(=O)c2ccc(Cl)cc2)OCCCC[C@H](C)O3)cc1
2. C[C@@H]1CCCCO[C@H](CN(C)C(=O)Nc2ccc(C(F)(F)F)cc2)[C@@H](C)CN([C@@H](C)CO)C(=O)c2cc(NS(=O)(=O)c3ccc(F)cc3)ccc2O1
3. CN=c1scc(-c2cccs2)n1/N=C/c1ccccc1O
4. C[C@@H]1CCCCO[C@@H](CN(C)C(=O)Nc2ccc(C(F)(F)F)cc2)[C@H](C)CN([C@H](C)CO)C(=O)c2cc(NS(=O)(=O)c3ccc(Cl)cc3)ccc2O1
5. Cc1cccc(C(=O)Oc2ccc(/C=N/NC(=O)c3ccccc3O)cc2)c1
6. C[C@H](O)C#Cc1cnc2c(c1)C(=O)N([C@H](C)CO)C[C@H](C)[C@H](CN(C)Cc1ccc(-c3ccccc3)cc1)O2
7. C[C@@H]1CCCCO[C@H](CN(C)C(=O)Cc2ccccc2)[C@@H](C)CN([C@@H](C)CO)C(=O)c2cc(NC(=O)Nc3ccc(C(F)(F)F)cc3)ccc2O1
8. O=C(Cc1ccccn1)N[C@@H]1CC[C@@H](CCn2cc(-c3ccccc3)nn2)O[C@H]1CO

a:
inactive
inactive
inactive
inactive
inactive
inactive
inactive
inactive

Would you mind giving activity change, negative = cytotoxicity for every compound in the list below?
1. Cc1cnc(NC(=O)CSc2nnc(C)n2N)s1
2. C[C@@H]1CCCCO[C@H](CN(C)C(=O)Cc2ccccc2)[C@H](C)CN([C@@H](C)CO)C(=O)c2cc(NC(=O)Nc3ccc(C(F)(F)F)cc3)ccc2O1

a:
inactive
inactive

For each of the items listed, what is its activity change, negative = cytotoxicity?
1. COc1cc(C2C3=C(COC3=O)Oc3cc4c(cc32)OCO4)cc(OC)c1O (stereo not given)
2. C[C@H]1CCCCO[C@@H](CN(C)Cc2ccc(C(F)(F)F)cc2)[C@@H](C)CN([C@@H](C)CO)C(=O)c2cc(NS(=O)(=O)c3ccccc3)ccc2O1
3. C[C@@H]1CN([C@H](C)CO)C(=O)c2cc(NS(=O)(=O)c3ccc(Cl)cc3)ccc2O[C@@H](C)CCCCO[C@H]1CN(C)S(=O)(=O)c1ccc(F)cc1
4. C[C@@H]1CN([C@H](C)CO)C(=O)c2cc(NC(=O)Nc3ccc(C(F)(F)F)cc3)ccc2O[C@@H](C)CCCCO[C@H]1CN(C)C(=O)c1ccccc1
5. C[C@@H]1CN([C@H](C)CO)C(=O)c2cc(NC(=O)Nc3ccc(F)cc3)ccc2O[C@@H](C)CCCCO[C@@H]1CN(C)Cc1ccc(Cl)c(Cl)c1

a:
["inactive", "inactive", "inactive", "inactive", "inactive"]

q: Need activity change, negative = cytotoxicity, item COc1cccc(C#Cc2ccc([C@@H]3[C@@H](C#N)N(C(=O)C4CCCCC4)[C@@H]3CO)cc2)c1
a: inactive

----------
Assign composite z-score to each entry below.
TEST TARGET: Pro-neuregulin-1, membrane-bound isoform (Homo sapiens)
TEST: NRG1 binders on small-molecule microarrays, primary screen, psychiatric disease protein project, biochemical, small-molecule microarray, fluorescence 635/667 (AID 1075);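 note: score combines 667 nm spot fluorescence with signal to noise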
EXPERIMENTAL PARAMETERS: NRG1 binding, 635 nm fluorescence, higher = more signal
Numbers only.

Solved cases (5 shown):
O=C1c2ccccc2C(=O)c2cc([C@H]3Oc4ccccc4S(=O)(=O)N4CCC[C@@H]34)ccc21    -0.926
COc1ccc([Si](C)(C)[C@H]2[C@H](CC(=O)N3Cc4ccccc4C[C@H]3CO)O[C@@]3(C(=O)N(Cc4cccc(N5C(=O)COc6ccccc65)c4)c4ccccc43)[C@@H]2C)cc1    0.838
COC(=O)C1=CC(CCCO)=CC(C2CC2)N(Cc2cc3c(cc2Br)OCO3)C=C1C(=O)OC (stereo not drawn)    2.22
CC(C)(C)OC(=O)CC[C@@]12N=C(c3ccc(OCCCO)cc3)O[C@@H]1c1ccccc1N(Cc1ccccc1)C2=O    0.778
CC(C)C(CO)N1C(=O)[C@@H]2C3C(=O)OCCC/C=C\[C@H]3OC23C=CCN(C(C)C)C(=O)[C@@H]13 (stereo partly drawn)    2.17

Parameters: items (list). Returns: composite z-score for each item.
1. O=C1O[C@H](c2ccccc2)[C@H](c2ccccc2)N2[C@H]1[C@@H](C(=O)NC[C@H](O)c1ccccc1)[C@]1(C(=O)Nc3ccc(C#CC4(O)CCCCCC4)cc31)[C@H]2c1ccc(O)cc1
2. CCOC(=O)C[C@H]1[C@H](OC(=O)c2ccc(-c3ccccc3)cc2)[C@@H](NC(=O)c2ccccc2)c2cc(OCCCO)ccc2N1C(=O)c1ccccc1
3. Cc1ccc(S[C@]2(C(=O)NC3CC3)CC(=O)N(Cc3ccccc3C(F)(F)F)[C@@H]2c2ccc(CO)cc2I)cc1

a:
[1.62, 0.622, 0.37]

----------
TEST: COS7 lysate on small-molecule microarray, probe aHis, 635 nm (AID 1123);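 note: z-score combines 667nm fluorescence intensity with signal-to-noise per printed compound spot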
EXPERIMENTAL PARAMETERS: COS7 cell lysate, fluorescence, higher = more signal
Please provide measured composite z-score for the entries that follow.
Give bare numbers.

Example results:
COc1ccc([Si](C)(C)[C@@H]2[C@@H](CCn3cc([C@H](O)c4ccccc4)nn3)O[C@]3(C(=O)N(C)c4c(Br)cc(C)cc43)[C@H]2C)cc1    -0.525
C=CCC(OC(C)=O)[C@@H]1[C@@H](N(Cc2cc3ccccc3o2)C(=O)c2ccc(-c3ccccc3)cc2)c2cc(OCCCO)ccc2N1C(=O)c1ccc(-c2ccccc2)cc1 (some centres undefined)    0.568
COCCOC(=O)N1C(=O)[C@@]2(c3cc(C#CCCO)ccc31)[C@H](c1ccccc1OCCO)N1[C@H](c3ccccc3)[C@H](c3ccccc3)OC(=O)[C@H]1[C@@H]2C(=O)NC[C@H](O)c1ccccc1    2.15

For each of the items listed, what is its composite z-score?
1. CN1C=C(C(=O)OCCS(C)(=O)=O)C(C(=O)OCCS(C)(=O)=O)=CC(CCCO)=CC1c1cccs1 (centres undefined)
2. Cc1ccc(S[C@]2(C(=O)NCC(C)C)CC(=O)N(C(C)C)[C@@H]2c2ccc(CO)cc2)cc1
3. NC(=O)N1C(=O)C2C(C1=O)C1C=C(c3ccc(CO)cc3)C2C(C2CC2)N1Cc1cc2c(cc1Br)OCO2 (centres undefined)
4. C=C(COC)C(=O)CC[C@@H](OC(=O)c1ccccc1-c1ccccc1C(=O)O)c1cccc(OCCO)c1
5. CC1CC/C=C\[C@H]2OC34C=CCN(C(C)C)C(=O)[C@H]3N(C(CO)C(C)C)C(=O)[C@@H]4C2C(=O)O1 (some centres undefined)

a:
[-0.12, 0.301, 1.32, 0.19, 0.669]

Could you tell me composite z-score for each of these molecules? They are listed below.
1. CC(C)C(=C=CC[C@@H](O)c1ccc(CO)o1)CCO
2. COCCOC(=O)N1C(=O)[C@@]2(c3cc(C#CC4(O)CCCCCC4)ccc31)[C@H](c1ccccc1OCCO)N1[C@H](c3ccccc3)[C@H](c3ccccc3)OC(=O)[C@H]1[C@@H]2C(=O)Nc1nc2ccccc2s1

a:
0.57
1.16

Go through the list and state composite z-score for each entry.
1. COC(=O)C(CC#Cc1ccc2c(c1)[C@]1(C(=O)N2)[C@H](c2ccccc2OCCO)N2[C@H](c3ccccc3)[C@H](c3ccccc3)OC(=O)[C@H]2[C@@H]1C(=O)N1CCCCCCC1)C(=O)OC
2. [N-]=[N+]=NCc1ccccc1C[C@@]1(C(=O)NCc2ccccc2)N=C(c2ccc(OCCCO)cc2)O[C@@H]1c1ccccc1
3. C=CC[C@]1(C(=O)N2CCCCC2)COC(c2ccc(OCCCO)cc2)=N1
4. O=C1O[C@H](c2ccccc2)[C@H](c2ccccc2)N2[C@H]1[C@@H](C(=O)NC[C@H](O)c1ccccc1)[C@]1(C(=O)Nc3ccc(C#CC4(O)CCCCCC4)cc31)[C@H]2c1ccc(O)cc1

a:
4.9
0.86
2.22
0.892

Entry source: PubChem BioAssay
